# melting point listing for each entry below

Reference set (6 entries):
compound: C[C@@H](NS(=O)(=O)c1ccc(-c2c(C#N)c3cc(Cl)ccc3n2C2CCCCC2)nc1)C(F)(F)F [compound 461]
test_result: 226 to 227 °C
--
compound: N#Cc1c(-c2ncc(S(=O)(=O)NC(CF)CF)cn2)n(CC2CC2)c2cc(C3CC3)ccc12 [compound 344]
test_result: 205 to 210 °C
--
compound: CCc1cc2c(cc1F)c(C#N)c(-c1ncc(S(=O)(=O)N[C@@H](C)C(F)(F)F)cc1C)n2-c1ccccn1 [compound 870]
test_result: 195 to 198 °C
--
compound: CC(C)n1c(-c2ccc(S(=O)(=O)NC(CF)CF)cn2)c(C#N)c2ccc(C3CC3)cc21 [compound 83]
test_result: 184 to 190 °C
--
compound: Cc1cc2c(cc1F)c(C(N)=O)c(-c1ccc(S(=O)(=O)N[C@@H](C)C(F)(F)F)cn1)n2-c1cccnc1 [compound 913]
test_result: 223 to 227 °C
--
compound: CC(C)n1c(-c2ccc(S(=O)(=O)N[C@H](C)C(F)(F)F)cn2)c(C#N)c2ccc(OC(F)F)cc21 [compound 194]
test_result: 166 to 168 °C

// below: melting point requested for another compound
Query C[C@H](NS(=O)(=O)c1ccc(-c2c(C#N)c3cc(F)c(OC(F)F)cc3n2CC2CC2)nc1)C(F)(F)F [compound 787] yields melting point of 149 to 153 °C

====

The following molecules are listed with their measured melting point values.

molecule: Cc1cc2c(C#N)c(-c3ccc(S(=O)(=O)NC(CF)CF)cn3)n(C3CCC3)c2cc1Cl [compound 505]
observation_type: melting point
test_result: 195 to 196 °C

Lookup result for C[C@H](NS(=O)(=O)c1ccc(-c2c(C#N)c3cc(C(F)(F)F)ccc3n2-c2ncccn2)nc1)C(F)(F)F [compound 922] ; measured melting point: 180 to 183 °C

# melting point of N#Cc1c(-c2ccc(S(=O)(=O)NC(CF)CF)cn2)n(C2CCCCC2)c2ccc(F)cc12 [compound 104] = 138 to 141 °C

====

observation_type: melting point

compound: CCc1cc2c(cc1F)c(C#N)c(-c1ccc(S(=O)(=O)NC3(C(F)(F)F)CC3)cn1)n2C1CCC1 [compound 642]
melting point: 203 to 203.5 °C
//
compound: CC[C@H](NS(=O)(=O)c1ccc(-c2c(C#N)c3cc(F)c(OC(F)F)cc3n2C2CCC2)nc1)C(F)(F)F [compound 738]
melting point: 166 to 173 °C
//
compound: CC(C)(C)NS(=O)(=O)c1ccc(-c2c(C#N)c3cc(F)c(Br)cc3n2-c2ncccn2)nc1 [compound 938]
melting point: 266 to 268 °C
//
compound: Cc1cc2c(cc1F)c(C#N)c(-c1ccc(S(=O)(=O)N[C@@H](C)C(F)(F)F)cn1)n2-c1ccncn1 [compound 896]
melting point: 214 to 219 °C
//
compound: C[C@H](NS(=O)(=O)c1ccc(-c2c(C#N)c3cc(F)c(C4CC4)cc3n2C2CCCC2)nc1)C(F)(F)F [compound 661]
melting point: 189 to 190 °C

For COc1ccc2c(C#N)c(-c3ncc(S(=O)(=O)N[C@@H](C)C4CC4)cn3)n(C3CCC3)c2c1 [compound 205] the compound record lists melting point as 204 to 206 °C

Notebook: N#Cc1c(-c2ccc(S(=O)(=O)NC3CC(F)(F)C3)cn2)n(C2CCC2)c2cc(Cl)ccc12 [compound 244] , melting point read as 135 to 138 °C

The value of melting point measured for the compound C[C@@H](NS(=O)(=O)c1ccc(-c2c(C#N)c3cc(Cl)ccc3n2-c2ccccn2)nc1)C(F)(F)F [compound 491] turned out to be 150 to 154 °C

So, Cc1ccc2c(C#N)c(-c3ccc(S(=O)(=O)N[C@H](C)C(F)(F)F)cn3)n(CC3CC3)c2c1 [compound 197] ? Its melting point was 165 to 169 °C
